Values from patent US20200031947A1

SYSTEM: T1, human GITR (hGITR), soluble analyte (human, UniProt Q9Y5U5 26-162)
T1 sequence: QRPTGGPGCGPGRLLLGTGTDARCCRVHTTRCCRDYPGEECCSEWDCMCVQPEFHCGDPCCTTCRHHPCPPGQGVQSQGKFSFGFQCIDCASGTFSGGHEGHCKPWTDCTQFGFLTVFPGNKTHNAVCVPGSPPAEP
ASSAY REMARKS: SPR (Biacore T200), 37 C; antibody captured on anti-human Fc chip, GITR as analyte; 1:1 Langmuir fit

BINDER	kon [M⁻¹ s⁻¹]
h3G7 AM (antibody, V domains shown, Whole IgG captured on an anti-human Fc chip) VH: QVQLVQSGAEVKKPGASVKVSCKASGYTFTGATMNWVRQAPGQGLEWMGLINPYNGGIRYNQKFKGRVTMTRDTSTSTVYMELSSLRSEDTAVYYCARIGGYYDSMDYWGQGTLVTVSS VL: DIQMTQSPSSLSASVGDRVTITCRASESVDPRGINFLNWYQQKPGKAPKLLIYAASNQAKGVPSRFSGSGSGTDFTLTISSLQPEDFATYYCQQALELPWTFGGGTKVEIK	1.1e+06
